Target: Chaperone protein DnaK (Escherichia coli (strain K12)) (UniProt P0A6Y8)
Sequence (P0A6Y8 whole entry, looked up, the tested form may be a part): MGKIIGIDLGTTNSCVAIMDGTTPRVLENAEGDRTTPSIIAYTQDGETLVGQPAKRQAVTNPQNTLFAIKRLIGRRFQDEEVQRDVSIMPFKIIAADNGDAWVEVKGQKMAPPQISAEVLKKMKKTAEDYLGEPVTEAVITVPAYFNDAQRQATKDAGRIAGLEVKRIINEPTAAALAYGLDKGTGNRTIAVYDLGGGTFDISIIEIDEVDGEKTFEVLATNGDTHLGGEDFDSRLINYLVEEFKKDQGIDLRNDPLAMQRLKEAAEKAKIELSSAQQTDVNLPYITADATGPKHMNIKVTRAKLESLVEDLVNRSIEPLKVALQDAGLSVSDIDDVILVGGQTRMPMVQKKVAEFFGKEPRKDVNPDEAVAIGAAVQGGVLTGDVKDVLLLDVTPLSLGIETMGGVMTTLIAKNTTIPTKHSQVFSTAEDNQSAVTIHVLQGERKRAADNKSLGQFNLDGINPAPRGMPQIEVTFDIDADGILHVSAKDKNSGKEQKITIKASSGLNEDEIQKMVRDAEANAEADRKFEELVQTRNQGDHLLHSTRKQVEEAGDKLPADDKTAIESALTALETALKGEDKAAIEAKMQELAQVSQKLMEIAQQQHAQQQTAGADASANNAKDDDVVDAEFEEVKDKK
Assay: binders of DnaK substrate-binding domain, biophysical, NMR, chaperone (AID 1033)
Details: Purified DnaK SBD, NMR ligand binding
Calls of active or inactive are those of the source. How the calls were made is not given here.
The reply should be one of these categories: active, inactive

Cn1ncc2c(=O)n(CC(=O)c3ccccc3)cnc21 | inactive

Ask: # fetch the recorded call for COC(=O)C[C@@H]1C2(C)C(=O)[C@@H](CC3=C4CC(=O)O[C@@H](c5ccoc5)[C@]4(C)CCC32)[C@H](OC(C)=O)C1(C)C (some centres not stated) here
Result: inactive

Ask: # fetch the recorded call for `COCc1cc(=O)oc2cc(N)ccc12` here
Result: inactive

Ask: # fetch the recorded call for `CCC[C@@H]1CCCCN1` here
Result: inactive

Ask: # fetch the recorded call for `CN(C)C(=S)Nc1nc2ccccc2s1` here
Result: inactive

Ask: # fetch the recorded call for `OCCN1CCN(C(=S)c2ccc(Cl)cc2)CC1` here
Result: inactive

Ask: # fetch the recorded call for `O=C(NC1=NCCS1)c1ccc([N+](=O)[O-])cc1Cl` here
Result: inactive

###

Property: Kd; scope: individual molecules
Target: Chaperone protein DnaK (Escherichia coli (strain K12)) (UniProt P0A6Y8)
Assay: binders of DnaK substrate-binding domain, biophysical, NMR, chaperone (AID 1033)
Conditions: Purified DnaK SBD, NMR ligand binding
Active and inactive are the calls of the source. No rule for the calls is given here.

Use the examples below as a reference point.
c1csc(-c2nn[nH]n2)c1 | > 4 mM (inactive)
CC1(C)C(=O)C=C[C@@]2(C)C1C[C@@H](O)[C@]1(C)C2CC[C@@]2(C)[C@H](c3ccoc3)OC(=O)[C@H]3O[C@]321 (some centres not stated) | > 4 mM (inactive)
Nc1cccc(S(=O)(=O)N2CCCCC2)c1 | > 4 mM (inactive)

Query molecule follows.
Ask: Find the recorded Kd belonging to `O=C(CN1C(=O)c2cccc3cccc(c23)C1=O)NO` and report it.
Result: > 4 mM (inactive)

###

Molecular target: Chaperone protein DnaK (Escherichia coli (strain K12))
Assay: binders of DnaK substrate-binding domain, biophysical, NMR, chaperone (AID 1033)
Settings: Purified DnaK SBD, NMR ligand binding
Activity calls are given as the source filed them. The rule behind the calls is not given here.
quantity_measured: Kd

Use the examples below as a reference point.
O=C(Nc1ccon1)c1cccc(Cl)c1 | > 4 mM (inactive)
O=C(c1ccncc1)N1CCN(C(=O)c2ccncc2)CC1 | > 4 mM (inactive)

Query compound follows.
Ask: Find the recorded Kd belonging to `CSc1nnc(CN2CCSCC2)n1C` and report it.
Result: > 4 mM (inactive)

###

Molecular target: Chaperone protein DnaK (Escherichia coli (strain K12))
Experiment: binders of DnaK substrate-binding domain, biophysical, NMR, chaperone (AID 1033)
Conditions: Purified DnaK SBD, NMR ligand binding
Calls of active or inactive are those of the source. The rule behind the calls is not given here.
quantity_measured: Kd

Ask: Find the recorded Kd belonging to `CCCc1cc2c(c(NC(C)=O)n1)c(=O)oc1ccccc12` and report it.
Result: > 4 mM (inactive)

Ask: Find the recorded Kd belonging to CCC(C)C(NC)C(=O)O (stereo not drawn) and report it.
Result: > 4 mM (inactive)

Ask: Find the recorded Kd belonging to NC(CC(=O)O)c1ccccc1 (stereo not drawn) and report it.
Result: > 4 mM (inactive)

Ask: Find the recorded Kd belonging to `O=C(Nc1ccc2c(c1)OCO2)c1cccc(F)c1` and report it.
Result: > 4 mM (inactive)

Ask: Find the recorded Kd belonging to `COc1cc(O)c2c(c1)C(=O)c1cc(C)cc(O)c1C2=O` and report it.
Result: > 4 mM (inactive)

Ask: Find the recorded Kd belonging to `Cc1ccc(C)n1NC(=O)c1cccs1` and report it.
Result: > 4 mM (inactive)

Ask: Find the recorded Kd belonging to O=S1(=O)CCC(NCCO)C1 (stereo not drawn) and report it.
Result: > 4 mM (inactive)

Ask: Find the recorded Kd belonging to `O=C(Nc1cccc(O)c1)c1ccccc1` and report it.
Result: > 4 mM (inactive)
